Hello, the source for this data is ChEMBL document CHEMBL1667837, in case you need it.

PROTOCOL_NOTES: Half life in BALB/c mouse at 20 mg/kg, po
Assay type: ADME, organism-based
Parameters: dose 20 mg/kg, route oral
EXPERIMENTAL_SETUP: in vivo
EXPERIMENTAL_ENDPOINT: half-life

| CHEMICAL_STRING | EXPERIMENTAL_ENDPOINT | OBS_VALUE |
| --- | --- | --- |
| O=C(CCC1=CCN(CCCc2ccc3ccccc3c2)C1=O)NO | half-life | 38.4 min |

====

PROTOCOL_NOTES: Half life in BALB/c mouse at 5 mg/kg, iv
Format: ADME, organism-based
Set-up: dose 5 mg/kg, route intravenous
EXPERIMENTAL_SETUP: in vivo

| CHEMICAL_STRING | half-life [min] |
| --- | --- |
| O=C(CCC1=CCN(CCCc2ccc3ccccc3c2)C1=O)NO | 9 |

====

ASSAYED_TARGET: UniProt Q9BY41
Sequence (Q9BY41 whole entry): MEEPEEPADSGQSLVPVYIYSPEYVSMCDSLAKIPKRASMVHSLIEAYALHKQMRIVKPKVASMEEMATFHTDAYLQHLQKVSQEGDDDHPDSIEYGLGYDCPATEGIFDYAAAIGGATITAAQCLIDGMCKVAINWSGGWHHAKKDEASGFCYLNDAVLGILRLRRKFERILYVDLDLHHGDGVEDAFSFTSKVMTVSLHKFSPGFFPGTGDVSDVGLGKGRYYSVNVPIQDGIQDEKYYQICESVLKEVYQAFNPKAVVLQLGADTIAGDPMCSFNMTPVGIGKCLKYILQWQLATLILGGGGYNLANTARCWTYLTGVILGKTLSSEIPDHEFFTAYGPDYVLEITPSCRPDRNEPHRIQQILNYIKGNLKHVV
PROTOCOL_NOTES: Inhibition of HDAC8 by fluorescence assay
pIC50: −log10 of the molar value.

| CHEMICAL_STRING | pIC50 |
| --- | --- |
| O=C(CCC1=CCN(CCCc2ccc3ccccc3c2)C1=O)NO | 3.92 |

====

PROTOCOL_NOTES: Volume of distribution at steady state in BALB/c mouse at 5 mg/kg, iv
Format: ADME, organism-based
Parameters: dose 5 mg/kg, route intravenous
EXPERIMENTAL_SETUP: in vivo, read-out: Vdss
EXPERIMENTAL_ENDPOINT: Vd (L/kg)

| CHEMICAL_STRING | OBS_VALUE |
| --- | --- |
| O=C(CCC1=CCN(CCCc2ccc3ccccc3c2)C1=O)NO | 0.85 |

====

ASSAYED_TARGET: Histone deacetylase 1 (Homo sapiens, UniProt Q13547)
Sequence (Q13547 whole entry): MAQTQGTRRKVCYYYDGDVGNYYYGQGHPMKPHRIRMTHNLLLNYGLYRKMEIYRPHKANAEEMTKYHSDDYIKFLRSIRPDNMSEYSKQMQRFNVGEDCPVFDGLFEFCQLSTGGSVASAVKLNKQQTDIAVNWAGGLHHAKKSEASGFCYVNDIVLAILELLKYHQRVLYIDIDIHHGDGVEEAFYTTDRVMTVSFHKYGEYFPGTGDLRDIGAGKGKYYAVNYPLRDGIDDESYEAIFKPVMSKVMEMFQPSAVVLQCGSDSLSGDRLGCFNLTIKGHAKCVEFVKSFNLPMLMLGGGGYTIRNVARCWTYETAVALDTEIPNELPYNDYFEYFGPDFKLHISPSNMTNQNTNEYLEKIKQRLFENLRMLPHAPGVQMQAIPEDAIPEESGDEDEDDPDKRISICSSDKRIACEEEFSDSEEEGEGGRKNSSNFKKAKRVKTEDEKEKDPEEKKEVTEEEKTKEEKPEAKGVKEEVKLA

| CHEMICAL_STRING | MEASUREMENT_UNIT | IC50 |
| --- | --- | --- |
| O=C(CCC1=CCN(CCCc2ccc3ccccc3c2)C1=O)NO | µM | 25.6 |

====

PROTOCOL_NOTES: Apparent permeability across human Caco2 cells
Assay type: ADME, cell-based
EXPERIMENTAL_SETUP: Caco-2

| CHEMICAL_STRING | Papp |
| --- | --- |
| O=C(CCC1=CCN(CCCc2ccccc2)C1=O)NO | 9.5 ×10⁻⁶ cm/s |
| O=C(CCC1=CCCN(CCc2ccc3ccccc3c2)C1=O)NO | 19.1 ×10⁻⁶ cm/s |
| O=C(CCC1=CCN(CCCc2ccc3ccccc3c2)C1=O)NO | 16.3 ×10⁻⁶ cm/s |
| O=C(CCC1=CCCN(CCCc2ccccc2)C1=O)NO | 17.5 ×10⁻⁶ cm/s |

====

PROTOCOL_NOTES: Tmax in BALB/c mouse at 20 mg/kg, po
Assay type: ADME, organism-based
Design: dose 20 mg/kg, route oral
EXPERIMENTAL_SETUP: in vivo
EXPERIMENTAL_ENDPOINT: Tmax (min)

| CHEMICAL_STRING | EXPERIMENTAL_ENDPOINT | OBS_VALUE |
| --- | --- | --- |
| O=C(CCC1=CCN(CCCc2ccc3ccccc3c2)C1=O)NO | Tmax | 15 |

====

PROTOCOL_NOTES: AUC (0 to infinity) in BALB/c mouse at 5 mg/kg, iv
Assay type: ADME, organism-based
Set-up: time infinity, dose 5 mg/kg, route intravenous
EXPERIMENTAL_SETUP: plasma

| CHEMICAL_STRING | AUC(0-inf) (ng·h/mL) |
| --- | --- |
| O=C(CCC1=CCN(CCCc2ccc3ccccc3c2)C1=O)NO | 890 |

====

ASSAYED_TARGET: Histone deacetylase 2 (Homo sapiens, UniProt Q92769)
Sequence (Q92769 whole entry): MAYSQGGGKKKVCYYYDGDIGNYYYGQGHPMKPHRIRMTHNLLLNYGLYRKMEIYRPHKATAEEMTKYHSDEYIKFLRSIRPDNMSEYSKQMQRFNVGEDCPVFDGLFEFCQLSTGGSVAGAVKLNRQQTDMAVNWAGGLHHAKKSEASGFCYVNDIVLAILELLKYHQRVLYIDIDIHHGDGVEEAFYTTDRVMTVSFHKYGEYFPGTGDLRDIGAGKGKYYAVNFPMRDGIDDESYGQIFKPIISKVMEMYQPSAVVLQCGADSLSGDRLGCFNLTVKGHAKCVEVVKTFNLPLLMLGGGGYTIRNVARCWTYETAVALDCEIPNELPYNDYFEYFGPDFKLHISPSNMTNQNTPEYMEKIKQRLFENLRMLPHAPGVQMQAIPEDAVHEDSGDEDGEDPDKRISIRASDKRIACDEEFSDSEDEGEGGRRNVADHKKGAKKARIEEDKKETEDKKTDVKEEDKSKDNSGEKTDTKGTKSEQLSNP
EXPERIMENTAL_ENDPOINT: IC50 (µM)

| CHEMICAL_STRING | OBS_VALUE |
| --- | --- |
| O=C(CCC1=CCN(CCCc2ccc3ccccc3c2)C1=O)NO | 16.4 |

====

PROTOCOL_NOTES: Cmax in BALB/c mouse at 20 mg/kg, po
Format: ADME, organism-based
Design: dose 20 mg/kg, route oral
EXPERIMENTAL_SETUP: in vivo

| CHEMICAL_STRING | MEASUREMENT_UNIT | Cmax |
| --- | --- | --- |
| O=C(CCC1=CCN(CCCc2ccc3ccccc3c2)C1=O)NO | ng/mL | 813 |

====

PROTOCOL_NOTES: AUC (0 to 5 hrs) in BALB/c mouse at 20 mg/kg, po
Type: ADME, organism-based
Parameters: time < 4 hr, dose 20 mg/kg, route oral
EXPERIMENTAL_SETUP: plasma

| CHEMICAL_STRING | AUC(0-t) at 4 h [ng·h/mL] |
| --- | --- |
| O=C(CCC1=CCN(CCCc2ccc3ccccc3c2)C1=O)NO | 309 |

====

Collected GI50 values appear next to each entry.
System: MDA-MB-231
PROTOCOL_NOTES: Cytotoxicity against human MDA-MB-231 cells
Assay type: functional
EXPERIMENTAL_ENDPOINT: GI50 (µM)

| CHEMICAL_STRING | EXPERIMENTAL_ENDPOINT | OBS_VALUE |
| --- | --- | --- |
| O=C(CCC1=CCCN(CCCc2ccc3ccccc3c2)C1=O)NO | GI50 | 4.7 |
| O=C(CCC1=CCCN(Cc2ccc3ccccc3c2)C1=O)NO | GI50 | 4.07 |
| O=C(CCC1=CCN(CCc2ccc3ccccc3c2)C1=O)NO | GI50 | 0.59 |
| O=C(CCC1=CCCN(CCc2ccccc2)C1=O)NO | GI50 | 1.62 |
| O=C(CCC1=CCCN(Cc2ccccc2)C1=O)NO | GI50 | 4.26 |
| O=C(CCC1=CCN(CCc2ccccc2)C1=O)NO | GI50 | 0.99 |

====

Tested on: MDA-MB-231
PROTOCOL_NOTES: Cytotoxicity against human MDA-MB-231 cells
Assay type: functional
Collected GI50 values appear next to each entry.

| CHEMICAL_STRING | ASSAYED_TARGET | MEASUREMENT_UNIT | GI50 |
| --- | --- | --- | --- |
| O=C(CCC1=CCN(CCCc2ccccc2)C1=O)NO | MDA-MB-231 | µM | 3.81 |
| O=C(CCC1=CCN(CCCc2ccc3ccccc3c2)C1=O)NO | MDA-MB-231 | µM | 0.65 |
| O=C(CCC1=CCN(Cc2ccccc2)C1=O)NO | MDA-MB-231 | µM | 4.73 |
| O=C(CCC1=CCCN(CCc2ccc3ccccc3c2)C1=O)NO | MDA-MB-231 | µM | 0.45 |
| O=C(CCC1=CCN(Cc2ccc3ccccc3c2)C1=O)NO | MDA-MB-231 | µM | 1.22 |
| O=C(CCC1=CCN(CCc2cccc3ccccc23)C1=O)NO | MDA-MB-231 | µM | 4.76 |

====

PROTOCOL_NOTES: Oral bioavailability in BALB/c mouse at 20 mg/kg
Type: ADME, organism-based
EXPERIMENTAL_SETUP: in vivo
EXPERIMENTAL_ENDPOINT: bioavailability (%)

| CHEMICAL_STRING | OBS_VALUE |
| --- | --- |
| O=C(CCC1=CCN(CCCc2ccc3ccccc3c2)C1=O)NO | 8.7 |

====

PROTOCOL_NOTES: Metabolic stability in ICR mouse liver microsomes assessed as compound remaining at 1 uM after 60 mins in absence of NADPH
Type: ADME, Microsome
EXPERIMENTAL_SETUP: read-out: Stability
We label by threshold. Values of remaining at 1 h, 1 µM strictly beneath 30% are Criterion met. Values of 30% and up are Criterion not met.

| CHEMICAL_STRING | ASSIGNED_LABEL |
| --- | --- |
| O=C(CCC1=CCN(CCCc2ccccc2)C1=O)NO | Criterion not met |
| O=C(CCC1=CCN(CCc2ccc3ccccc3c2)C1=O)NO | Criterion not met |
| O=C(CCC1=CCCN(CCc2ccc3ccccc3c2)C1=O)NO | Criterion not met |
| O=C(CCC1=CCN(CCCc2ccc3ccccc3c2)C1=O)NO | Criterion not met |
| O=C(CCC1=CCN(CCc2cccc3ccccc23)C1=O)NO | Criterion met |
